# Test system: FANCD2 foci and γH2AX in U2OS cells
# TEST DESCRIPTION: High-throughput high content indirect immunofluorescence (FANCD2 foci, γH2AX)
# Format: cell-based
# CONDITION INFO: CU1 200 μM, CU2 500 μM, HU 2.5 mM 8 h, cisplatin 10 μM 8 h, raw data
For each record, write down the corresponding H2AX positive nuclei, Experiment 2.
Hey, just send me the number, nothing else.

Input line: For CCN1CCN(c2cc(C)nc3nc(CN4CCCCC4C)nn23)CC1 (stereo not shown) , what is its reported H2AX positive nuclei, Experiment 2?
Output line: 303

Input line: Follow-up item: NC(=O)NO [HU, Hydroxyurea, reference compound]
Output line: 672

Input line: Follow-up item: `NCCN1C(=O)CC[C@H]2CN(Cc3cccc(-c4ccco4)c3)CC[C@H]21`
Output line: 279

Input line: Follow-up item: N.N.[Cl][Pt][Cl] [cisplatin, reference compound]
Output line: 1122
